System: Human immunodeficiency virus 2
method: Antiviral activity against HIV2
Format: functional, organism-based
measured_metric: pEC50
Numbers only, as −log10 of the molar value.

Input: Field request: pEC50 | item: Nc1nc(N)nc(OCCOCP(=O)(O)O)n1
Output: 5.43

====

tgt: Human immunodeficiency virus type 1 reverse transcriptase (Human immunodeficiency virus 1)
method: Inhibition of HIV1 reverse transcriptase RNase H
measured_metric: pIC50
One number for each entry, as −log10 of the molar value.

Input: Field request: pIC50 | item: O=C(Oc1ccc2c(c1OC(=O)c1ccccc1)C(=O)c1ccccc1C2=O)c1ccccc1
Output: 4.89

====

tgt: Human immunodeficiency virus type 1 reverse transcriptase (Human immunodeficiency virus 1)
method: Inhibition of HIV1 reverse transcriptase polymerase p51/p66 after 10 to 20 mins in presence of [3H]-TTP by liquid scintillation counting method
measured_metric: pIC50
Numbers only, as −log10 of the molar value.

>>> df
                      smiles_representation  readout_value
0  COc1ccc2ccccc2c1/C=N/NC(=O)c1ccc(Oc2ccccc2)cc1           6.40

Input: Find the measured pIC50: item COc1ccc2ccccc2c1/C=N/NC(=O)c1ccc(-c2ccccc2)cc1 , target or system Human immunodeficiency virus type 1 reverse transcriptase (Human immunodeficiency virus 1).
Output: 6.30

====

System: Human immunodeficiency virus 2
method: Antiviral activity against HIV2 D194 infected in human PBMC after 5 days by MTT assay
Assay type: functional, organism-based, Human immunodeficiency virus type 2 (ISOLATE D194)
cond: Human immunodeficiency virus 2, 120 h
measured_metric: pEC50
Numbers only, as −log10 of the molar value.

Input: Field request: pEC50 | item: CCc1c(Sc2cc(C)cc(C)c2)n(CCCCC(=O)NCCCCCCCCCCCCNc2ccn([C@H]3CC[C@@H](CO)O3)c(=O)n2)c(=O)[nH]c1=O
Output: 6.35

====

Test system: Human immunodeficiency virus 1
method: Antiviral activity against HIV1 infected in human CEM cells assessed as reduction in giant cell formation by microscopic method
Assay type: functional, organism-based
cond: Human immunodeficiency virus 1, CCRF-CEM
pEC50: −log10 of the molar value.
measured_metric: pEC50

Use these answered entries as a reference point.
molecule	tgt	pEC50
Cc1cn([C@@H]2O[C@H](CO[Si](C)(C)C(C)(C)C)[C@@]3(OS(=O)(=O)C=C3N)[C@H]2O[Si](C)(C)C(C)(C)C)c(=O)n(CCCO)c1=O	Human immunodeficiency virus 1	7.00
COC(=O)P(=O)(OC)OCCCn1c(=O)c(C)cn([C@@H]2O[C@H](CO[Si](C)(C)C(C)(C)C)[C@@]3(OS(=O)(=O)C=C3N)[C@H]2O[Si](C)(C)C(C)(C)C)c1=O (stereo partly drawn)	Human immunodeficiency virus 1	5.35 to 7.10

Input: Field request: pEC50 | item: COC(=O)P(=O)([O-])OCCCn1c(=O)c(C)cn([C@@H]2O[C@H](CO[Si](C)(C)C(C)(C)C)[C@@]3(OS(=O)(=O)C=C3N)[C@H]2O[Si](C)(C)C(C)(C)C)c1=O.[Na+]
Output: 5.35 to 7.10
